Record set of MIC for target or system MRSA 562.
propertyMeasured: MIC (µg/mL)

                                   compound  modifiersign  observedresult
0  CC(=O)NC[C@H]1CN(c2cc(F)c(N3CC[Si](C)(C)CC3)c(F)c2)C(=O)O1 [NDS-10028]             =               8
1  COC(=O)NC[C@H]1CN(c2ccc(N3CC[Si](C)(C)CC3)c(F)c2)C(=O)O1 [NDS-10061]             =              16
2  C[Si]1(C)CCN(c2c(F)cc(N3C[C@H](CN)OC3=O)cc2F)CC1 [NDS-10054]             =              16
3  C[Si]1(C)CCN(c2ccc(N3C[C@H](CO)OC3=O)cc2F)CC1 [NDS-10059]             >              32
4  C[Si]1(C)CCN(c2ccc(N3C[C@H](CN)OC3=O)cc2F)CC1 [NDS-10057]             >              32

Reference source for all entries: patent US9233989B2
